Experiment: NCI Yeast Anticancer Drug Screen. Data for the mlh1 rad18 strain (AID 175)
Details: S. cerevisiae mlh1 rad18 strain growth inhibition; at 50.0 µM; active compounds read high
The panel holds about 79,000 compounds, 15% with a hit somewhere; the sample as a whole holds those more often.
result type: growth inhibition (%)
Give the value, in units of %, as a plain number.

> print(dat)
                                   compound  observed.result
1  CN(C)CCCNC(=O)c1cc(NC(=O)c2cc(NC(=O)c3cc(NC(=O)CCCn4ccc(CO)c4CO)cn3C)cn2C)cn1C             8.35
2    CS1(C)=NC(=O)C2=C(N=1)c1ccccc1S2(=O)=O            -7.85
3             COc1cc(C(=O)O)ccc1OS(=O)(=O)O            -31.3

growth inhibition lookup needed for O=c1c2ccccc2c2ccccc2n1C(c1ccccc1)c1ccccc1 , thanks.
-2

growth inhibition lookup needed for O=C(NN1C(=O)C(Cl)C1c1cccc(O)c1)c1ccccc1O (stereo not given) , thanks.
-39.1

###

Assay: NCI Yeast Anticancer Drug Screen. Data for the mlh1 rad18 strain (AID 175)
Conditions: S. cerevisiae mlh1 rad18 strain growth inhibition; at 50.0 µM; active compounds read high
Compounds without any hit were thinned out: in the full panel of roughly 79,000, 15% have a hit. Activity calls are given as the source filed them. No stated cut-off is given here; in the data, active means growth inhibition above about 70%; inactive means the rest.
Measured growth inhibition of individual entries

compound	growth inhibition
CSc1ncnc2c1ncn2CCC(=O)O	-19.4% (inactive)
O=C(N/N=C(/c1nc2ccc(Cl)cc2[nH]c1=O)C(O)c1ccc(Cl)cc1Cl)c1ccncc1 (configuration not stated)	23.1% (inactive)
O=C(N/N=C\c1ccc([N+](=O)[O-])cc1)Nc1ccc2ccccc2c1	14.1% (inactive)
O=C1C2CCCC3CCCC(C(=O)N1NC1CCCCC1)C32 (configuration not stated)	49% (inactive)
c1ccc(CCN2CCN(CCc3ccccn3)CC2)nc1	0.2% (inactive)
Cn1cnc(N)c1C(N)=S	1.1% (inactive)
CCOc1ccc2nc(/C=C/c3ccccc3)ccc2c1	14.8% (inactive)
COc1ccc(C2CC(=O)N(c3ncccc3C)C(=O)C2)cc1	3.65% (inactive)
CCc1cccc(OC(=O)CCl)c1	-5.1% (inactive)
CN=C(NN(C)C)c1ccc(NC(=O)c2ccc(C(=O)Nc3ccc(C(=NC)NN(C)C)cc3)cc2)cc1	13.9% (inactive)

growth inhibition lookup needed for Cc1ccc(C(=S)NC(=O)Nc2ccccc2)cc1 , thanks.
1.45% (inactive)

growth inhibition lookup needed for Cc1c(CN2CCOCC2)c(CN2CCOCC2)c(C)n1-c1ccc(Cl)cn1 , thanks.
7.55% (inactive)

growth inhibition lookup needed for CCCCSC1=NCCN1 , thanks.
10.5% (inactive)

growth inhibition lookup needed for O=S(=O)(O)n1ccnc1 (tested in a mixture with another compound) , thanks.
18.4% (inactive)

growth inhibition lookup needed for COC(=O)C1=NC(=O)C(C#N)=C(C(=O)OC)C1(C(=O)c1ccc(OC)cc1)c1ccc(OC)cc1 (configuration not stated) , thanks.
-12.1% (inactive)

growth inhibition lookup needed for CC1CC(C)NC(C)C1 (configuration not stated) , thanks.
-7.6% (inactive)

###

Test: NCI Yeast Anticancer Drug Screen. Data for the mec2-1 strain (AID 157)
Conditions: S. cerevisiae mec2-1 strain, at 50.0 µM, active compounds read high
Compounds without any hit were thinned out: in the full panel of roughly 79,000, 15% have a hit.
result type: growth inhibition (%)
Give the value, in units of %, as a plain number.

Completed entries (count: 10):
> print(dat)
                                    molecule  observed.result
 1  O=C1NC(=O)C2(CCCC2=Nc2ccc(Br)cc2)C2C=CN(Cc3ccccc3)C=C12 (stereo unspecified)            -4.25
 2                                  CCCCSCCO             -0.2
 3  CN(C(=O)CCC1OCCO1)c1cc([N+](=O)[O-])ccc1OCc1ccccc1            -1.05
 4     O=Cc1cc(N=Nc2ccc(S(=O)(=O)O)cc2)ccc1O            -35.5
 5                       O=C(O)C(O)(O)C(=O)O            -11.2
 6                CCOC(=O)/N=c1/nc(N(C)C)ss1            -29.6
 7                        CC(=O)Nc1cccc(O)c1              5.3
 8  O=S(=O)(O)c1cc(N=Nc2cc(S(=O)(=O)O)c3cccnc3c2O)ccc1/C=C/c1ccc(N=Nc2cc(S(=O)(=O)O)c3cccnc3c2O)cc1S(=O)(=O)O.[Na+].[Zn+2]            -8.65
 9          O=C(NC1c2ccccc2Oc2ccccc21)OCCCCl             -3.1
10             COc1cc(Br)cc2nc(-c3cccs3)oc12            -46.9

Continue with the molecule presented below.
growth inhibition lookup needed for COc1cc(/C=C2\C=Cc3ccccc32)ccc1N(C)C , thanks.
-13.2

###

Assay: NCI Yeast Anticancer Drug Screen. Data for the sgs1 mgt1 strain (AID 161);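 also: 0% = growth of cultures given vehicle only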
Conditions: S. cerevisiae sgs1 mgt1 strain, at 50.0 µM, active compounds read high
Compounds without any hit were thinned out: in the full panel of roughly 79,000, 15% have a hit.
result type: growth inhibition (%)
Give the value, in units of %, as a plain number.

Completed entries (count: 10):
> print(dat)
                                    compound  unit.label  observed.result
 1   Cc1ccc2ccccc2c1CSc1nc(N)nc2c1ncn2CC(C)C           %             30.7
 2  COc1cc(C2c3cc4c(cc3OC(N3CCCC3)C2C)OCO4)cc(OC)c1OC (configuration not stated)           %             -2.9
 3                         CC(C)CCC(=O)C(C)C           %             13.2
 4                        Cc1occ(Br)c(=O)c1O           %             17.5
 5    C=C(CO)[C@H]1Oc2ccc(C(C)=O)cc2[C@@H]1O           %            -24.6
 6  O=C(Nc1ccc(Cl)cc1Cl)C(=O)C(C(=O)c1ccncc1)C1OC(=O)c2ccccc21 (configuration not stated)           %            -29.2
 7  OC1CC2C=CC1CC2 (configuration not stated)           %              2.4
 8  CCc1cccc(C(C)C)c1NC(=O)C(=O)C(CC(=O)Nc1ccc(Cl)c(Cl)c1)C(=O)OC (configuration not stated)           %            -2.65
 9         Cc1ccc(S(=O)(=O)OCC(C)(C)CC#N)cc1           %             35.9
10            OCCN(CCO)C(Cc1ccccc1)Cc1ccccc1           %             -1.7

growth inhibition lookup needed for CC(=O)Nc1ccc(S(=O)(=O)N=S(c2ccccc2)c2ccccc2)cc1 , thanks.
8.45

growth inhibition lookup needed for O=C(Sc1ccccn1)c1ccccc1 , thanks.
-18.4

###

Measured growth inhibition of individual entries
Experiment: NCI Yeast Anticancer Drug Screen. Data for the sgs1 mgt1 strain (AID 161);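 also: 0% = growth of cultures given vehicle only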
Details: S. cerevisiae sgs1 mgt1 strain, at 50.0 µM, active compounds read high
The panel holds about 79,000 compounds, 15% with a hit somewhere; the sample as a whole holds those more often.
Give the value, in units of %, as a plain number.

growth inhibition lookup needed for Nc1cnccn1 , thanks.
0.75

growth inhibition lookup needed for O=C(O)CCNCCCCNCCC(=O)O , thanks.
-23.9

growth inhibition lookup needed for NC(=O)C1CC(O)CN1C(=O)c1cccnc1 (configuration not stated) , thanks.
15.3

growth inhibition lookup needed for CC1(C)C2CC(c3ccccc3)C1/C(=C/O)C2=O (configuration not stated) , thanks.
2.8

growth inhibition lookup needed for CN(C)CCCNc1ncnc2nc[nH]c12 , thanks.
-31.8

growth inhibition lookup needed for CC(=NC1CCCCC1)c1ccccc1O , thanks.
-3.35

growth inhibition lookup needed for O=C(CC(=O)c1ccccc1)Nc1cccnc1 , thanks.
-0.3

growth inhibition lookup needed for CC1(C)OC(C(F)(F)F)(C(F)(F)F)c2cc(C(C)(C)C)ccc2S1 , thanks.
-12.7

###

Assay: NCI Yeast Anticancer Drug Screen. Data for the bub3 strain (AID 167)
Conditions: S. cerevisiae bub3 mutant strain, at 50.0 µM, active compounds read high
This is part of a sample that, as a whole, favours compounds with a hit. Of some 79,000 tested, about 15% had one in any assay.
Measured growth inhibition of individual entries
Give the value, in units of %, as a plain number.

Completed entries (count: 8):
> print(dat)
                                   compound        result.type  observed.result
1                                CN(C)CSCCO  growth inhibition             -5.1
2             CN(C=O)c1ccc([N+](=O)[O-])cc1  growth inhibition              1.4
3  Oc1c2cccc1Cc1cccc3c1OCCOCCOCCOCCOc1c(cccc1Cc1cccc(c1O)C3)C2  growth inhibition             12.4
4                      O=c1oc2ccccc2cc1CCBr  growth inhibition             -9.2
5            O=c1[nH]c(Sc2ccccc2)nc2ccccc12  growth inhibition             18.2
6  Oc1ccc2ccccc2c1/C=N/N=C/c1c(O)ccc2ccccc12  growth inhibition              6.4
7                 Cc1ccccc1N=C(N)Nc1ccccc1C  growth inhibition            -38.7
8  COc1cccc(C2CC(C)=Nc3c(ccc4c3C(=O)c3ccccc3C4=O)N2)c1O (stereo not drawn)  growth inhibition             11.8

Continue with the compound presented below.
growth inhibition lookup needed for O=S(=O)([O-])Sn1c(-c2ccccc2)c[n+]2ccccc12 , thanks.
12.1

Cited source for all entries: PubChem BioAssay (NCI)
